test system: H. contortus; experiment: Sheep experimentally infected with Haemonchus contortus, percentage clearance (Procedure No. 1); assay type: in vivo; settings: ip, intraperitoneal administration, single sheep per route, read-out: H. contortus %Clearance I.P.
Each record here notes measured inhibition in vivo at 100 mg/kg.
Field format: number, assumed %, no unit text.

Please indicate inhibition in vivo at 100 mg/kg recorded for O=C(NN=Cc1ccnc2ccccc12)c1cccs1
80.1

Please indicate inhibition in vivo at 100 mg/kg recorded for O=C(NN=Cc1ccnc2ccccc12)c1ccc(C(F)(F)F)cc1
29

----------
test system: H. contortus; assay: Sheep experimentally infected with Haemonchus contortus, percentage clearance (Procedure No. 1); format: in vivo; conditions: oral administration, single sheep per route, read-out: H. contortus %Clearance P.O.
Each record here notes measured inhibition in vivo at 100 mg/kg.
Field format: number, assumed %, no unit text.

Some entries whose results are on file:
>  <compound>
O=C(NN=Cc1ccc2ccccc2n1)c1cccnc1

>  <recordedResult>
76.8

$$$$
>  <compound>
CCC(=O)NN=Cc1cnc2ccccc2c1

>  <recordedResult>
96.4

$$$$
>  <compound>
O=C(NN=Cc1ccnc2ccccc12)c1ccc(C(F)(F)F)cc1

>  <recordedResult>
40.2

$$$$

Continue with the compound presented below.
Please indicate inhibition in vivo at 100 mg/kg recorded for O=C(NN=Cc1ccnc2ccccc12)c1ccccc1
96.8

----------
test system: H. contortus; assay: Sheep experimentally infected with Haemonchus contortus, percentage clearance (Procedure No. 1); assay type: in vivo; settings: oral administration, single sheep per route, read-out: H. contortus %Clearance P.O.
Each record here notes measured inhibition in vivo at 100 mg/kg.
Field format: number, assumed %, no unit text.

Please indicate inhibition in vivo at 100 mg/kg recorded for COC(=O)NN=Cc1ccnc2ccccc12 [Compound 25, methyl (4-quinolinylmethylene)carbazate]
3.4

----------
tested on: H. contortus; test: Sheep experimentally infected with Haemonchus contortus, percentage clearance (Procedure No. 1); format: in vivo; details: ip, intraperitoneal administration, single sheep per route, read-out: H. contortus %Clearance I.P.
Each record here notes measured inhibition in vivo at 100 mg/kg.
Field format: number, assumed %, no unit text.

Some entries whose results are on file:
>  <sampleSmiles>
O=C(NN=Cc1ccnc2ccccc12)C1CCC1

>  <recordedResult>
88.4

$$$$
>  <sampleSmiles>
Cc1ccccc1C(=O)NN=Cc1ccc2ccccc2n1

>  <recordedResult>
0

$$$$
>  <sampleSmiles>
O=C(NN=Cc1ccc2ccccc2n1)c1cccc([N+](=O)[O-])c1

>  <recordedResult>
0

$$$$
>  <sampleSmiles>
COc1ccc(C(=O)NN=Cc2ccc3ccccc3n2)cc1

>  <recordedResult>
14.3

$$$$

Continue with the molecule presented below.
Please indicate inhibition in vivo at 100 mg/kg recorded for Cc1cccc(C(=O)NN=Cc2ccc3ccccc3n2)c1
29.8

----------
test system: H. contortus; assay: Sheep experimentally infected with Haemonchus contortus, percentage clearance (Procedure No. 1); assay type: in vivo; details: ip, intraperitoneal administration, single sheep per route, read-out: H. contortus %Clearance I.P.
measureName: inhibition in vivo at 100 mg/kg
Output should be the measured figure followed by the unit it is expressed in.

Some entries whose results are on file:
>  <compound>
O=C(NN=Cc1ccc2ccccc2n1)c1cccc(O)c1 [Compound 20]

>  <inhibition in vivo at 100 mg/kg>
20.3%

$$$$
>  <compound>
CCOc1ccc(C(=O)NN=Cc2ccc3ccccc3n2)cc1 [Compound 14]

>  <inhibition in vivo at 100 mg/kg>
0%

$$$$

Please indicate inhibition in vivo at 100 mg/kg recorded for CCOC(=O)NN=Cc1ccnc2ccccc12 [Compound 6, ethyl (4-quinolinylmethylene)carbazate]
61.2%
